Experiment: APR_HepG2_MitoticArrest_1hr: Apredica 1-hour HepG2 Assay for Mitotic Arrest (AID 2282672)
Conditions: high-content imaging, actives raise or lower the signal
The source made the active and inactive calls. Rule for the calls: active = hit-call score of the fitted dose curve at least 0.9, where 1 is the maximum; inactive = score below 0.9.
EXPERIMENTAL ENDPOINT: AC50

Example results:
CN1CSC(=S)N(C)C1	inactive
CCOc1nc(NC)nc(NC(=O)NS(=O)(=O)c2ccccc2C(=O)OC)n1	inactive
N#Cc1c(Cl)c(Cl)c(Cl)c(C#N)c1Cl	8.28 µM (active)
CCC(C)(C)C(=O)OC1=C(c2ccc(Cl)cc2Cl)C(=O)OC12CCCCC2	inactive
CNC(=O)/C=C(\C)OP(=O)(OC)OC	inactive

Consider now this further compound.
[ask] I'd like to know its AC50. The compound in question is COC(=O)c1ccccc1S(=O)(=O)NC(=O)Nc1nc(C)nc(OC)n1
[reply] inactive

----------
Assay: APR_HepG2_StressKinase_24hr: Apredica 24-hour HepG2 Assay for Stress Kinase (AID 2282922)
Settings: HepG2 stress kinase (phospho-c-Jun) imaging, actives raise or lower the signal
Active and inactive are the calls of the source. Rule for the calls: active = hit-call score of the fitted dose curve at least 0.9, where 1 is the maximum; inactive = score below 0.9.
Respond with a class label; see true (1) (active), false (0) (inactive)

Worked examples follow.
CC1(C)C(C=C(Cl)Cl)C1C(=O)OC(C#N)c1ccc(F)c(Oc2ccccc2)c1 (centres undefined)	false (0)
O=C(Nc1ccccc1)Nc1cnns1	false (0)
CCOCN(C(=O)CCl)c1c(C)cccc1CC	false (0)

# ---- query compound ----
[ask] // outcome(item) with item = CCc1ccc(C(=O)NN(C(=O)c2cc(C)cc(C)c2)C(C)(C)C)cc1
[reply] false (0)

----------
Test: APR_HepG2_NuclearSize_72hr: Apredica 72-hour HepG2 Assay for Nuclear Size (AID 2282925)
Details: high-content imaging, actives raise or lower the signal
Method: APR_HepG2_72hr is a cell-based, multiplexed-readout assay that uses HepG2, a human liver cell line, with measurements taken at 72 hours after chemical dosing in a 384-well plate.APR_HepG2_NuclearSize_72hr is one of 10 assay component(s) measured or calculated from the APR_HepG2_72hr assay. […] This assay endpoint, APR_HepG2_NuclearSize_72hr, was analyzed with bidirectional fitting relative to DMSO as the negative control and baseline of activity. […]
Active and inactive are the calls of the source. How the source made its calls: active means hit-call score of the fitted dose curve at least 0.9, where 1 is the maximum; inactive means score below 0.9.
EXPERIMENTAL ENDPOINT: outcome

CCC(C)Nc1c([N+](=O)[O-])cc(C(C)(C)C)cc1[N+](=O)[O-] (stereo not drawn)	inactive
CCc1ccc(C(=O)NN(C(=O)c2cc(C)cc(C)c2)C(C)(C)C)cc1	inactive
CNC(=O)Oc1cccc(N=CN(C)C)c1	inactive

----------
Test: APR_HepG2_MitoMembPot_72hr: Apredica 72-hour HepG2 Assay for Mitochondrial Membrane Potential (AID 2282917)
Details: imaging, actives raise or lower the signal
Calls of active or inactive are those of the source. How the source made its calls: active means hit-call score of the fitted dose curve at least 0.9, where 1 is the maximum; inactive means score below 0.9.
// classify into active, inactive

Use these answered entries as a reference point.
CCC(C)(C)C(=O)OC1=C(c2ccc(Cl)cc2Cl)C(=O)OC12CCCCC2	inactive
CNC(=O)Oc1cccc(N=CN(C)C)c1	inactive
O=C1c2ccccc2C(=O)N1SC(Cl)(Cl)Cl	active
O=[N+]([O-])c1c(Cl)c(Cl)c(Cl)c(Cl)c1Cl	inactive
CN1CSC(=S)N(C)C1	inactive
CC[C@H](C)[C@H]1O[C@]2(C=C[C@@H]1C)C[C@@H]1C[C@@H](C/C=C(\C)[C@@H](O[C@H]3C[C@H](OC)[C@@H](O[C@H]4C[C@H](OC)[C@@H](O)[C@H](C)O4)[C@H](C)O3)[C@@H](C)/C=C/C=C3\CO[C@@H]4[C@H](O)C(C)=C[C@@H](C(=O)O1)[C@]34O)O2 (tested in a mixture with another compound)	inactive

[ask] Per the assay record, what outcome was assigned to C[C@H]1[C@H](c2ccc(Cl)cc2)SC(=O)N1C(=O)NC1CCCCC1 ?
[reply] active

----------
Read-out: xenobiotic metabolism (CYP1A2), CYP1A2 (gene 1544)
Test: CLD_CYP1A2_24hr: CellzDirect (CLD) Gene Expression Assay for xenobiotic metabolism (CYP1A2) at 24 hours (AID 2283683)
Records with an inconclusive call do not appear. Activity calls are given as the source filed them. The calls were made as follows: active = hit-call score of the fitted dose curve at least 0.9, where 1 is the maximum; inconclusive = response in the unintended direction; inactive = score below 0.9.
Give your call using only these classes: TRUE (active), FALSE (inactive)

Worked set:
Clc1ccccc1-c1nnc(-c2ccccc2Cl)nn1	TRUE
CNC(=O)Oc1ccccc1OC(C)C	FALSE
CCOc1nc(NC)nc(NC(=O)NS(=O)(=O)c2ccccc2C(=O)OC)n1	TRUE
O=C(Nc1ccccc1)Nc1cnns1	TRUE
Cc1cc(C)nc(NC(=O)NS(=O)(=O)c2ccccc2C(=O)OC2COC2)n1	FALSE

Consider the record given below.
[ask] Called result for CCOCN(C(=O)CCl)c1c(C)cccc1CC
[reply] TRUE

----------
System: NCBI gene 100848466
Assay: NVS_NR_bPR: NovaScreen (NVS) Nuclear Receptor Binding Assay for bovine Progextron Receptor (PR) (AID 2283343)
Records with an inconclusive call do not appear. The source made the active and inactive calls. The calls were made as follows: active = hit-call score of the fitted dose curve at least 0.9, where 1 is the maximum; inconclusive = response in the unintended direction; inactive = score below 0.9.
Parameter call: string, one of active, inactive

C[C@H]1[C@H](c2ccc(Cl)cc2)SC(=O)N1C(=O)NC1CCCCC1	inactive
CC1(C)C(C=C(Cl)Cl)C1C(=O)OC(C#N)c1ccc(F)c(Oc2ccccc2)c1 (centres undefined)	inactive
COP(=S)(OC)Oc1ccc(SC)c(C)c1	active

[ask] How was CNC(=O)CSP(=S)(OC)OC classified in this test?
[reply] inactive

[ask] # fetch the recorded call for COc1nn(CSP(=S)(OC)OC)c(=O)s1 here
[reply] inactive

[ask] What is the recorded call for this compound in the test? N#Cc1c(Cl)c(Cl)c(Cl)c(C#N)c1Cl
[reply] inactive

[ask] In this assay, the call recorded for COP(=S)(OC)Oc1ccc([N+](=O)[O-])cc1 was what?
[reply] active

[ask] What call does the record list for CC(C)(C)C(O)/C(=C\c1ccc(Cl)cc1Cl)n1cncn1 (centres undefined) ?
[reply] inactive

[ask] Field: outcome | Entry: Oc1ccc(Cl)cc1Cc1ccccc1
[reply] active

----------
Read-out: Cytochrome P450 3A4 (Homo sapiens)
Experiment: CLD_CYP3A4_24hr: CellzDirect (CLD) Gene Expression Assay for xenobiotic metabolism (CYP3A4) at 24 hours (AID 2283689)
Results filed as inconclusive are left out. Calls of active or inactive are those of the source. The calls were made as follows: active = hit-call score of the fitted dose curve at least 0.9, where 1 is the maximum; inconclusive = response in the unintended direction; inactive = score below 0.9.
Answer with one of the outcomes given here: class 1 = active, class 0 = inactive

OCCOc1ccccc1	class 0
CC(C)N(C(=O)COc1nnc(C(F)(F)F)s1)c1ccc(F)cc1	class 0
CC(C)(C)C(O)/C(=C\c1ccc(Cl)cc1Cl)n1cncn1 (stereo not given)	class 1
O=C(NC(=O)c1c(F)cccc1F)Nc1ccc(OC(F)(F)C(F)OC(F)(F)F)c(Cl)c1 (stereo not given)	class 0

[ask] # lookup: test call for CCCN(CCOc1c(Cl)cc(Cl)cc1Cl)C(=O)n1ccnc1
[reply] class 1

----------
Read-out: xenobiotic metabolism (CYP1A1), CYP1A1 (gene 1543)
Test: CLD_CYP1A1_24hr: CellzDirect (CLD) Gene Expression Assay for xenobiotic metabolism (CYP1A1) at 24 hours (AID 2283673);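 note: CYP1A1 mRNA level by quantitative nuclease protection with chemiluminescence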
Inconclusive results are not listed. Calls of active or inactive are those of the source. How the source made its calls: active means hit-call score of the fitted dose curve at least 0.9, where 1 is the maximum; inconclusive means response in the unintended direction; inactive means score below 0.9.
Hello, when you answer, please use one of the following outcomes: true = active, false = inactive

CCS(=O)(=O)c1cccnc1S(=O)(=O)NC(=O)Nc1nc(OC)cc(OC)n1	true

[ask] Just curious, what result did Cc1[nH]c(=O)n(C(C)(C)C)c(=O)c1Cl get here?
[reply] true

[ask] Which outcome was entered for the molecule CCC(C)(C)C(=O)OC1=C(c2ccc(Cl)cc2Cl)C(=O)OC12CCCCC2 in this test?
[reply] false

[ask] I would be grateful if you could indicate the recorded call for CC(C)OC(=O)Nc1cccc(Cl)c1 .
[reply] true

----------
Read-out: Thyroid Hormone Responsive (THRSP), THRSP (gene 7069)
Assay: LTEA_HepaRG_THRSP: Life Technologies and Expression Analysis (LTEA) Assay for Thyroid Hormone Responsive (THRSP) using HepaRG (AID 2283536)
Conditions: mRNA level, 48 h; actives raise or lower the signal
Active and inactive are the calls of the source. The calls were made as follows: active = hit-call score of the fitted dose curve at least 0.9, where 1 is the maximum; inactive = score below 0.9.
EXPERIMENTAL ENDPOINT: AC50

Illustrative cases are given below, each with its answer.
N#Cc1c(Cl)c(Cl)c(Cl)c(C#N)c1Cl	13.2 µM (active)
O=[N+]([O-])c1c(Cl)c(Cl)c(Cl)c(Cl)c1Cl	inactive
O=C(NC(=O)c1c(F)cccc1F)Nc1ccc(OC(F)(F)C(F)OC(F)(F)F)c(Cl)c1 (stereo not drawn)	6.25 µM (active)
CC1(c2ccc(Oc3ccccc3)cc2)OC(=O)N(Nc2ccccc2)C1=O (stereo not drawn)	24.1 µM (active)
COc1nn(CSP(=S)(OC)OC)c(=O)s1	inactive
CCOC1Oc2ccc(OS(C)(=O)=O)cc2C1(C)C (stereo not drawn)	89.3 µM (active)
CC[C@H](C)[C@H]1O[C@]2(C=C[C@@H]1C)C[C@@H]1C[C@@H](C/C=C(\C)[C@@H](O[C@H]3C[C@H](OC)[C@@H](O[C@H]4C[C@H](OC)[C@@H](O)[C@H](C)O4)[C@H](C)O3)[C@@H](C)/C=C/C=C3\CO[C@@H]4[C@H](O)C(C)=C[C@@H](C(=O)O1)[C@]34O)O2 (tested in a mixture with another compound)	inactive
CNC(=O)Oc1cccc(N=CN(C)C)c1	inactive
CCC(C)(C)C(=O)OC1=C(c2ccc(Cl)cc2Cl)C(=O)OC12CCCCC2	inactive
COP(=S)(OC)Oc1ccc(SC)c(C)c1	inactive

[ask] Fill in the blank: the reported AC50 of COP(=S)(OC)Oc1ccc([N+](=O)[O-])cc1 is ____.
[reply] inactive

[ask] Report AC50 for O=C(O)CCCOc1ccc(Cl)cc1Cl please.
[reply] inactive

[ask] GET /values?readout=AC50&item= O=C(Nc1ccccc1)Nc1cnns1
[reply] 73.5 µM (active)
